- assaySystem: sucrase (carbohydrase derived from rabbit small intestine mucous membrane) (Oryctolagus cuniculus, UniProt P07768)
- Construct: suspended again in a 10 mM potassium phosphate buffer (pH: 7.0), thereby obtaining a crude enzyme suspension; from tissue; host or cells: rabbit small intestine (title: mucous membrane), homogenate, 60,000×g precipitate
- Sequence (P07768 1008-1827 limits assumed): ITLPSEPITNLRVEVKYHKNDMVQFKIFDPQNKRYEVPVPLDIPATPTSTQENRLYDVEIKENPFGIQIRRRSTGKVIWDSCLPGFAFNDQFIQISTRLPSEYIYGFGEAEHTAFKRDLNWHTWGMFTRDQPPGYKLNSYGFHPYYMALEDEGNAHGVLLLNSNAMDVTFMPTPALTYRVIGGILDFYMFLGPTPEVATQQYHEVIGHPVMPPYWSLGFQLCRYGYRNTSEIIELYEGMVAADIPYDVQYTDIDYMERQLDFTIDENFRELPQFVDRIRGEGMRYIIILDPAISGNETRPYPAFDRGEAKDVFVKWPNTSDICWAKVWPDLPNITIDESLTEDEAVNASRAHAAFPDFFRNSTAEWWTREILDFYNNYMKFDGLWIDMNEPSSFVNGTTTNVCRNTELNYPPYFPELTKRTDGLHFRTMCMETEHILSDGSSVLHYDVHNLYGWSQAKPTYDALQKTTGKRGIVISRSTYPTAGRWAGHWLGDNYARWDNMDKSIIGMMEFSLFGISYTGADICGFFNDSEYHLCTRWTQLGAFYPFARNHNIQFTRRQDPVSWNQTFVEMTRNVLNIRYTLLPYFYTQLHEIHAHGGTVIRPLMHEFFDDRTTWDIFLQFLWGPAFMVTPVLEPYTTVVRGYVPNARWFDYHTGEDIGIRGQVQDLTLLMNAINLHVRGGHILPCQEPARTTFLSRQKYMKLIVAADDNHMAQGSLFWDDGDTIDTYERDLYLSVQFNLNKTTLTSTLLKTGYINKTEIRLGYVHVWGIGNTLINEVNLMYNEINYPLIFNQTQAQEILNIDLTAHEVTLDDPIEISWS
- Sequence (P07768 2-1007 partner limits assumed): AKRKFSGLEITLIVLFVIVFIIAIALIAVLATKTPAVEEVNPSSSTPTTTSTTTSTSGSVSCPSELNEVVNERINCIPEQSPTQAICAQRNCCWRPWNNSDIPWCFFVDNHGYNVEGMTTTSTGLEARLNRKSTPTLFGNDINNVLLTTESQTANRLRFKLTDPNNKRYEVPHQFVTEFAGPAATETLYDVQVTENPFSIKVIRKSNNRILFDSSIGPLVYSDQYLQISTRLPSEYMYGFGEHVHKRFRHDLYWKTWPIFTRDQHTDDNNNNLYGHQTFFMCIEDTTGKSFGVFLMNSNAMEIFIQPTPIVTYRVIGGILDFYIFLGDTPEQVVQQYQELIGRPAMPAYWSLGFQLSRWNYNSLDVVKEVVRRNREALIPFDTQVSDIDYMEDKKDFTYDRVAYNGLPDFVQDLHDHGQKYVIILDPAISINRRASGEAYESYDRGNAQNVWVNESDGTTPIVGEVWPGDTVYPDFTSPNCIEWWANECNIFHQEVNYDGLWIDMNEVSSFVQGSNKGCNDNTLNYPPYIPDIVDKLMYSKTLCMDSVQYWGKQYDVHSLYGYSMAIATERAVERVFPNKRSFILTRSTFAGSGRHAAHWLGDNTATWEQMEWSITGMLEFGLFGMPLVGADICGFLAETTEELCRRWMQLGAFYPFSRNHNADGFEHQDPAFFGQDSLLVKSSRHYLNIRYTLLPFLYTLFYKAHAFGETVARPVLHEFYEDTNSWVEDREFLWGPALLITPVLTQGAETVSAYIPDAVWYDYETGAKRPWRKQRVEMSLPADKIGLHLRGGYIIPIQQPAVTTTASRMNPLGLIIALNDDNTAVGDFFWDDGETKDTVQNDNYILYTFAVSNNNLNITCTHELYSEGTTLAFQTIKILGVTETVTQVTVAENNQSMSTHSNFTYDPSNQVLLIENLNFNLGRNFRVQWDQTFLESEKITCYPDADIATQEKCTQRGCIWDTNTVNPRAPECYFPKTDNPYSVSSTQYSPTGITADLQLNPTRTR
- assayInfo: Action to inhibit the hydrolytic activity of homogenate prepared from rabbit small intestine mucous membrane: sucrase inhibition
- Assay type: biochemical
- conditionNotes: 0.25 h; 200 mg/dl; substrate sucrose 20 mM; pH 6.8, 37° C., 15 minutes; read-out: Sucrase inhibition rate
Below: a set of entries, each annotated with reported inhibition at 2000 µg/mL.
Field format: number, assumed %, no unit text.

As a guide, the following entries are already answered.
OC[C@H]1O[C@@H](O[C@H]2[C@H](O)[C@H](O)[C@H](O[C@H]3[C@H](O)[C@H](O)C(O)O[C@@H]3CO)O[C@@H]2CO)[C@@H](O)[C@@H](O)[C@@H]1O (stereo partly drawn) [reference compound] : 2
O=C[C@H](O)[C@H](O)[C@@H](O)CO [L-Lyxose, L-lyxose, reference compound] : -0.2

Attention now turns to another entry.
Data request: // fetch inhibition at 2000 µg/mL given entry OC[C@H]1O[C@@H](O[C@H]2[C@H](O)[C@H](O)C(O)O[C@@H]2CO)[C@@H](O)[C@@H](O)[C@@H]1O (stereo partly drawn) [reference compound]
Data returned: 0.9

Origin of measurements: patent US5468734A
